Listed below: TGI values for each entry.
# Tested on: HCT-15 colon
# Assay text: NCI tumour cell line growth inhibition, 48 h

# Molecule, TGI
records = [
    ("CC(C)(C)n1[nH]c(=O)n(C(C)(C)C)c1=O", "> 100 µM"),
    ("Cc1cn(CC2(CO)CCC2)c(=O)[nH]c1=O", "> 100 µM"),
    ("COC(=O)C(/C(=N/N)C(=O)Nc1cc(Cl)ccc1Cl)c1nc2ccc([N+](=O)[O-])cc2[nH]c1=O (stereo unspecified)", "> 100 µM"),
    ("CCOC(=O)C1=NN(c2ccc(C)cc2)C2(c3ccccc3)C=C(c3ccccc3)N(C)CCN12 (stereo unspecified)", "> 100 µM"),
    ("COc1nc(NC2OC(COC(C)=O)C(OC(C)=O)C(OC(C)=O)C2OC(C)=O)c(N=C(C)C(C)=O)c(=O)n1C (stereo unspecified)", "> 100 µM"),
    ("CCCCCCCCCCCCCC(=O)OCC(CCS(=O)(=O)O[C@H]1CC[C@@]2(C)C(=CC[C@@H]3C2CC[C@]2(C)C(=O)CCC32)C1)OC(=O)CCCCCCCCCCCCC (stereo partly specified)", "> 100 µM"),
]
